Reported values of IC50 for individual entries
System: 817829-284-R-J1-PDC complex spheroid viability
ASSAY_TEXT: Anticancer human tumor 817829-284-R-J1-PDC patient-derived colon adenocarcinoma cell line growth inhibition [POLQ]
COND: curve of first compound; second compound 0.0316 µM

# count of solved cases: 5
INSERT INTO results (molecule, system_tested, reading) VALUES
  ('COc1cccc2c1C(=O)c1c(O)c3c(c(O)c1C2=O)CC(O)(C(=O)CO)CC3OC1CC(N)C(O)C(C)O1 (stereo unspecified) + Nc1ccc(C#CCN(C(=O)Cc2ncc(C(F)(F)F)cc2C(F)(F)F)c2ccc(F)cc2)nn1', '817829-284-R-J1-PDC complex spheroid viability', '< 0.0316 µM'),
  ('Cn1ncnc1[C@H]1c2n[nH]c(=O)c3cc(F)cc(c23)N[C@@H]1c1ccc(F)cc1 + Nc1ccc(C#CCN(C(=O)Cc2ncc(C(F)(F)F)cc2C(F)(F)F)c2ccc(F)cc2)nn1', '817829-284-R-J1-PDC complex spheroid viability', '0.0389 µM'),
  ('Nc1ccn(C2OC(CO)C(O)C2(F)F)c(=O)n1 (stereo unspecified) + Cc1cccc(N(C)C(=O)C2C(O)CCN2c2nc(C)cc(C(F)(F)F)c2C#N)c1', '817829-284-R-J1-PDC complex spheroid viability', '< 0.0316 µM'),
  ('CCc1cc2c(N3CCc4c(cc(Cn5ccnc5)cc4-c4cn(C)nc4C(F)(F)F)C3=O)cc(C)nc2c(OC)n1 + Cc1cccc(N(C)C(=O)C2C(O)CCN2c2nc(C)cc(C(F)(F)F)c2C#N)c1', '817829-284-R-J1-PDC complex spheroid viability', '1.78 µM'),
  ('C#Cc1c(F)ccc2cc(O)cc(-c3ncc4c(N5CC6CCC(C5)N6)nc(OCC56CCCN5CC(F)C6)nc4c3F)c12 (stereo unspecified) + COC1C(OC(N)=O)C(O)C(Oc2ccc3c(O)c(NC(=O)c4ccc(O)c(CC=C(C)C)c4)c(=O)oc3c2C)OC1(C)C', '817829-284-R-J1-PDC complex spheroid viability', '> 10 µM');

Now look at this entry.
Sample CCc1c2c(nc3ccc(O)cc13)-c1cc3c(c(=O)n1C2)COC(=O)[C@]3(O)CC + COC1C(OC(N)=O)C(O)C(Oc2ccc3c(O)c(NC(=O)c4ccc(O)c(CC=C(C)C)c4)c(=O)oc3c2C)OC1(C)C ; IC50 observed: < 0.00316 µM

###

Tested on: 817829-284-R-J1-PDC complex spheroid viability
ASSAY_TEXT: Anticancer human tumor 817829-284-R-J1-PDC cell line growth inhibition [POLQ]; active = viability on the fitted dose curve at most 10% of control; inactive = the rest;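 also: spheroids exposed to compounds for 7 days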
COND: second compound 1 µM; first compound 0.316 µM
Allowed answers: active, inactive

Worked cases, answers included:
INSERT INTO results (molecule, discrete_label) VALUES
  ('CC1COCCN1c1cc(C2(O)CC3CCC(C2)O3)c2cnn(-c3ccn[nH]3)c2n1 (stereo unspecified) + Nc1ccc(C#CCN(C(=O)Cc2ncc(C(F)(F)F)cc2C(F)(F)F)c2ccc(F)cc2)nn1', 'active'),
  ('COc1cccc(OCCCN)c1-c1cc(Nc2cnc(C#N)cn2)n[nH]1 + Cc1cccc(N(C)C(=O)C2C(O)CCN2c2nc(C)cc(C(F)(F)F)c2C#N)c1', 'active'),
  ('CC1COCCN1c1cc(-c2ccnn2C)c2ccnc(-c3ccn[nH]3)c2n1 (stereo unspecified) + Nc1ccc(C#CCN(C(=O)Cc2ncc(C(F)(F)F)cc2C(F)(F)F)c2ccc(F)cc2)nn1', 'active'),
  ('Nc1ccn(C2OC(CO)C(O)C2(F)F)c(=O)n1 (stereo unspecified) + Nc1ccc(C#CCN(C(=O)Cc2ncc(C(F)(F)F)cc2C(F)(F)F)c2ccc(F)cc2)nn1', 'active'),
  ('C=CC(=O)N1CCN(c2nc(=O)n(-c3c(C)ccnc3C(C)C)c3nc(-c4c(O)cccc4F)c(F)cc23)C(C)C1 (stereo unspecified) + Nc1ccc(C#CCN(C(=O)Cc2ncc(C(F)(F)F)cc2C(F)(F)F)c2ccc(F)cc2)nn1', 'inactive');

What did this assay record as the result for C=CC(=O)N1CCN(c2nc(=O)n(-c3c(C)ccnc3C(C)C)c3nc(-c4c(O)cccc4F)c(F)cc23)C(C)C1 (stereo unspecified) + COC1C(OC(N)=O)C(O)C(Oc2ccc3c(O)c(NC(=O)c4ccc(O)c(CC=C(C)C)c4)c(=O)oc3c2C)OC1(C)C ?
inactive

Test call, this molecule: CCc1cc2c(N3CCc4c(cc(Cn5ccnc5)cc4-c4cn(C)nc4C(F)(F)F)C3=O)cc(C)nc2c(OC)n1 + COC1C(OC(N)=O)C(O)C(Oc2ccc3c(O)c(NC(=O)c4ccc(O)c(CC=C(C)C)c4)c(=O)oc3c2C)OC1(C)C
inactive

Hello, I am checking results. What call was entered for C=CCn1c(=O)c2cnc(Nc3ccc(N4CCN(C)CC4)cc3)nc2n1-c1cccc(C(C)(C)O)n1 + Nc1ccc(C#CCN(C(=O)Cc2ncc(C(F)(F)F)cc2C(F)(F)F)c2ccc(F)cc2)nn1 ?
inactive

For this molecule, state the assay outcome: CCc1c2c(nc3ccc(O)cc13)-c1cc3c(c(=O)n1C2)COC(=O)[C@]3(O)CC + Nc1ccc(C#CCN(C(=O)Cc2ncc(C(F)(F)F)cc2C(F)(F)F)c2ccc(F)cc2)nn1
active

Short answer needed: outcome of this test for COc1cc2cc(C(=O)CCC(=O)O)sc2cc1OC + Nc1ccc(C#CCN(C(=O)Cc2ncc(C(F)(F)F)cc2C(F)(F)F)c2ccc(F)cc2)nn1 ?
inactive

Source of measurements: PubChem BioAssay AID1963839
